FYI, the data here is from PubChem BioAssay (EPA / NIEHS).

- Read-out: Urokinase-type plasminogen activator receptor (uPAR), PLAUR (gene 5329)
- measurement protocol: BSK_CASM3C_uPAR: BioMAP Diversity Plus: CASM3C Assay for Urokinase-type plasminogen activator receptor (uPAR) Biomarker Activity (AID 2283054);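 also: cell-surface uPAR protein level quantified by ELISA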
- condition label: primary human coronary artery smooth muscle cells; actives raise or lower the signal
Active and inactive are the calls of the source. The calls were made as follows: active = hit-call score of the fitted dose curve at least 0.9, where 1 is the maximum; inactive = score below 0.9.
Respond only with the outcome that fits, drawn from active, inactive

Worked examples follow.
[
  {
    "compound": "C#CCC1=C(C)C(OC(=O)C2C(C=C(C)C)C2(C)C)CC1=O (centres undefined)",
    "assigned class": "inactive"
  },
  {
    "compound": "CC(COc1ccc(Oc2ccccc2)cc1)Oc1ccccn1 (centres undefined)",
    "assigned class": "inactive"
  },
  {
    "compound": "COP(=O)(OC)SCn1c(=O)oc2cc(Cl)cnc21",
    "assigned class": "active"
  }
]

Task: Assay outcome for CCOP(=S)(OCC)OC(Cl)C(Cl)(Cl)Cl (centres undefined) : what was it?
Result: inactive

* * *

- Read-out: Cytochrome P450 3A4 (Homo sapiens) (UniProt P08684)
- Sequence (P08684 whole entry, looked up): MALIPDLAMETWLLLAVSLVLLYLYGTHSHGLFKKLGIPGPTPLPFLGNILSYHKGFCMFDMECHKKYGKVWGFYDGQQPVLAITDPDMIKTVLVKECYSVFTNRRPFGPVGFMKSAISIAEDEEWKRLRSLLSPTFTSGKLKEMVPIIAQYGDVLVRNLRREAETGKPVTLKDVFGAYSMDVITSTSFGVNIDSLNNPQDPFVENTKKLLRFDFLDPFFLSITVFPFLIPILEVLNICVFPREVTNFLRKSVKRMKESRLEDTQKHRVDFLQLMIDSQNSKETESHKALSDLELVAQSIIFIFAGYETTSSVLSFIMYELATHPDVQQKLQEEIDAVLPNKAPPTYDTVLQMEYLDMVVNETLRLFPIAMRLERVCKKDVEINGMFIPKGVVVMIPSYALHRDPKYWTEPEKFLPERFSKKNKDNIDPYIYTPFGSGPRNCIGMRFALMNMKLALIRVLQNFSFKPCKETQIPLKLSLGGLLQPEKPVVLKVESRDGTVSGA
- measurement protocol: CLD_CYP3A4_48hr: CellzDirect (CLD) Gene Expression Assay for xenobiotic metabolism (CYP3A4) at 48 hours (AID 2283698)
Records with an inconclusive call do not appear. Calls of active or inactive are those of the source. Rule for the calls: active = hit-call score of the fitted dose curve at least 0.9, where 1 is the maximum; inconclusive = response in the unintended direction; inactive = score below 0.9.
Respond only with the outcome that fits, drawn from active, inactive

Worked examples follow.
[
  {
    "molecule": "COc1cccc(C(=O)NN(C(=O)c2cc(C)cc(C)c2)C(C)(C)C)c1C",
    "assigned class": "active"
  },
  {
    "molecule": "CON=C(C(=O)OC)c1ccccc1CON=C(C)c1cccc(C(F)(F)F)c1",
    "assigned class": "active"
  },
  {
    "molecule": "Cc1ccn2nc(S(=O)(=O)Nc3c(F)cccc3F)nc2n1",
    "assigned class": "active"
  },
  {
    "molecule": "CCCSP(=O)(OCC)Oc1ccc(Br)cc1Cl (centres undefined)",
    "assigned class": "active"
  },
  {
    "molecule": "CCc1cccc(CC)c1N(COC)C(=O)CCl",
    "assigned class": "inactive"
  }
]

Continue with the next molecule.
Task: Assay outcome for "Cc1nn(-c2cc(NS(C)(=O)=O)c(Cl)cc2Cl)c(=O)n1C(F)F" : what was it?
Result: active

* * *

- measurement protocol: Tanguay_ZF_120hpf_ActivityScore_legacy: (Legacy) Oregon State University Tanguay Lab 120 Hour Post-fertilization zebrafish Assay Score for Activity (AID 2283742)
Activity calls are given as the source filed them. Rule for the calls: active = hit-call score of the fitted dose curve at least 0.9, where 1 is the maximum; inconclusive = response in the unintended direction; inactive = score below 0.9.
Respond only with the outcome that fits, drawn from active, inactive

Worked examples follow.
[
  {
    "molecule": "CC(C)[C@H](C(=O)O[C@H](C#N)c1cccc(Oc2ccccc2)c1)c1ccc(Cl)cc1",
    "assigned class": "active"
  },
  {
    "molecule": "CC(Oc1cccc(Cl)c1)C(=O)O (stereo unspecified)",
    "assigned class": "inactive"
  }
]

Task: Assay outcome for "CCOC(=O)COc1cc(-c2nn(C)c(OC(F)F)c2Cl)c(F)cc1Cl" : what was it?
Result: inactive

Task: Assay outcome for "CN(C)[C@@H]1C(=O)C(C(N)=O)=C(O)[C@@]2(O)C(=O)C3=C(O)c4c(O)cccc4[C@@](C)(O)[C@H]3[C@H](O)[C@@H]12" : what was it?
Result: inactive
